- target under test: F876L mutant Androgen Receptor (AR-F876L) (Homo sapiens (Human), UniProt P10275, F877L)
- Sequence (P10275 whole entry F877L): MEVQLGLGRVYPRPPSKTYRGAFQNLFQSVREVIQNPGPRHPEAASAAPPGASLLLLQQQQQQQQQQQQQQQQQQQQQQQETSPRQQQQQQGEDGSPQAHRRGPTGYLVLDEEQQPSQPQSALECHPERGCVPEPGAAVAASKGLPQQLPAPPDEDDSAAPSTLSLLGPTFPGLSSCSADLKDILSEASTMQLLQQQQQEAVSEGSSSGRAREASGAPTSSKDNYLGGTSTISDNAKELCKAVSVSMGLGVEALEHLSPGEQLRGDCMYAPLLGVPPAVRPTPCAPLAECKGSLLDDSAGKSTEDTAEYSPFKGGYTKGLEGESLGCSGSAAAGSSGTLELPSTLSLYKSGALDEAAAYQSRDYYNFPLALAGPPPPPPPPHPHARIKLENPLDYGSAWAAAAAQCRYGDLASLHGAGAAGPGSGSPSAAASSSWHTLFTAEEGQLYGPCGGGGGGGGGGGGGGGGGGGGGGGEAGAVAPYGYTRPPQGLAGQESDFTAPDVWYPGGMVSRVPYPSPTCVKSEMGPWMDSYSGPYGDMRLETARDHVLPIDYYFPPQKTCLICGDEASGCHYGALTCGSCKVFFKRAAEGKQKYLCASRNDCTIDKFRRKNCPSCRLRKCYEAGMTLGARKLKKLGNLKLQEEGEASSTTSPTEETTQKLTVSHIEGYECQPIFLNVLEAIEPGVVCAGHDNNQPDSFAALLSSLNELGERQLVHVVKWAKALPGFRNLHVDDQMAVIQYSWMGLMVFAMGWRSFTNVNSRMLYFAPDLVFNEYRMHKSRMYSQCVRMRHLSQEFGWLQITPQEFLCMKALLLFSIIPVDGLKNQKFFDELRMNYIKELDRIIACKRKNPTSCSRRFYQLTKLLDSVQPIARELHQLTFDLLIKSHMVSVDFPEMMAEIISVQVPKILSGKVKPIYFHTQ
- procedure text: LNCaP-AR-F876L ANT reporter assay (antagonist mode)
- Type: cell-based
- condition: maximum % inhibition of R1881 control response over the tested concentration range; read-out: LNCaP-AR-F876L ANT MAX % Inh
measure name: Emax (%)

Cc1cc(N2C(=O)C3(CCC3)N(c3ccc(OC4CCN(CC(F)(F)F)CC4)nc3)C2=S)cnc1C#N; 98.4
N#Cc1ncc(N2C(=O)C3(CCC3)N(c3ccc(OC4CCN(CCO)CC4)cc3)C2=S)cc1Cl; 98
Cn1cc(N2C(=S)N(c3cnc(C#N)c(C(F)(F)F)c3)C(=O)C23CCC3)ccc1=O; 99
COCCn1ncc2cc(N3C(=S)N(c4cnc(C#N)c(OC)c4)C(=O)C34CCC4)ccc21; 100
N#Cc1ncc(N2C(=O)C3(CCC3)N(c3ccc(OC4CCNCC4(F)F)cc3)C2=S)cc1C(F)(F)F (racemic); 102
N#Cc1ncc(N2C(=O)C3(CCC3)N(c3ccc4[nH]ncc4c3)C2=S)cc1Cl; 98
C#CCN1CCC(Oc2ccc(N3C(=S)N(c4cnc(C#N)c(C(F)(F)F)c4)C(=O)C34CCC4)cc2)CC1; 97.5
N#Cc1ncc(N2C(=O)C3(CCC3)N(c3ccc4c(cnn4C4CCNCC4)c3)C2=S)cc1C(F)(F)F; 100
CN1CC[C@H](Oc2ccc(N3C(=S)N(c4cnc(C#N)c(C(F)(F)F)c4)C(=O)C34CCC4)cc2)[C@@H](F)C1 (racemic); 98.2
CN1CCCC(Oc2ccc(N3C(=S)N(c4cnc(C#N)c(C(F)(F)F)c4)C(=O)C34CCC4)cc2)CC1 (stereo not shown); 101
